tested on: Thromboxane-A synthase (Oryctolagus cuniculus); experiment: Tested in vitro against rabbit thromboxane A2 synthetase (TXA2) at 1 uM
Result Type: inhibition (%)

>  <Structure As Smiles>
CCCCCCCCn1nc(-c2cccnc2)c2ccccc2c1=O

>  <inhibition, %>
99

$$$$

A: O=c1c2ccccc2c(-c2cccnc2)nn1CCCCSc1ncccn1
B: CCn1nc(-c2cncnc2)c2ccccc2c1=O
Compare reported inhibition values for A and B . Which is lower? Your choice should be expressed through its label.
B

----------
molecular target: Thromboxane-A synthase (Homo sapiens, UniProt P24557); test: Tested in vitro against TXA2 synthetase inhibitory activity in human whole blood; format: tissue-based
Sequence (P24557 whole entry): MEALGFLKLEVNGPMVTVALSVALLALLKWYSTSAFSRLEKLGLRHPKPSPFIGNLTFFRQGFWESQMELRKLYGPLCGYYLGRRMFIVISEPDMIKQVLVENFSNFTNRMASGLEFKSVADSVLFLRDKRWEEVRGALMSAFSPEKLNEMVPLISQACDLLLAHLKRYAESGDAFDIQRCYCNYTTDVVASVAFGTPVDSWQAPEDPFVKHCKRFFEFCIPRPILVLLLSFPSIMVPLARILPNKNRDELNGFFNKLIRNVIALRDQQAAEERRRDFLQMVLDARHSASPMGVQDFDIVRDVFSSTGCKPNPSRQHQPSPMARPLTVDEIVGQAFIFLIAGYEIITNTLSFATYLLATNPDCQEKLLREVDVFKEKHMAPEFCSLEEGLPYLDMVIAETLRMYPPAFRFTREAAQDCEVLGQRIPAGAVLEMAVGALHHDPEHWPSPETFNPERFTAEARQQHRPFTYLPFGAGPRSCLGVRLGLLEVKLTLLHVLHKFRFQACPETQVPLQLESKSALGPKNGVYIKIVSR
Result Type: IC50 (µM)

P: Cn1nc(-c2cncs2)c2ccccc2c1=O
Q: CCn1nc(-c2cccnc2)c2ccccc2c1=O
Returns: the label, P or Q , whose recorded IC50 is the lower number. Lab note: record the label of whichever item you select.
Q
(Q: 2.3 µM, P: 8.7 µM)
